Listing of recorded Change by entry.
species on record: Rattus norvegicus; experiment: The compound was tested for % change in plasma triglycerides in normocholesterolemic rats at 0.2 % composition of dose with diet given in a period of 7 days; assay type: functional
Measure Name: Change

| Compound | Measure Name | Data Value |
| --- | --- | --- |
| CC(C)(C)c1ccc(-c2nc3ccc(Cl)cc3c(=O)o2)cc1 | Change | -36% |
| CC(C)(C)c1ccc(-c2nc3ccc(Br)cc3c(=O)o2)cc1 | Change | -40% |
| CC(C)(C)c1ccc(-c2nc3ccc([N+](=O)[O-])cc3c(=O)o2)cc1 | Change | -27% |
| Cc1ccc2nc(-c3cccc(C(C)(C)C)c3)oc(=O)c2c1 | Change | 25% |
| Cc1ccc2nc(-c3ccc(C(C)(C)C)cc3)oc(=O)c2c1 | Change | -33% |
| CC(C)(C)c1ccc(-c2nc3ccccc3c(=O)o2)cc1 | Change | -32% |
| CC(C)(C)c1ccc(-c2nc3ccc(I)cc3c(=O)o2)cc1 | Change | -35% |
| CC(C)(C)c1ccc(C(=O)O)cc1 | Change | -41% |
| Cc1ccc2nc(-c3ccccc3C(C)(C)C)oc(=O)c2c1 | Change | -13% |
| CCOC(=O)C(C)(C)Oc1ccc(Cl)cc1 [CLOFIBRATE] | Change | -48% |
| O=C(O)c1cccnc1 | Change | -3% |
| Cc1ccc2nc(-c3ccccc3)oc(=O)c2c1 | Change | -1% |

* * *

species: Rattus norvegicus; assay: The compound was tested for % change in plasma total cholesterol in normocholesterolemic rats at 0.2 % composition of dose with diet given in a period of 7 days; type: functional
Class definitions on Change: range 1: < -30%; range 2: ≥ -30% and < -10%; range 3: ≥ -10%

| Compound | Assigned Class |
| --- | --- |
| CC(C)(C)c1ccc(-c2nc3ccc(Br)cc3c(=O)o2)cc1 | range 1 |
| CC(C)(C)c1ccc(C(=O)O)cc1 | range 1 |
| Cc1ccc2nc(-c3ccc(C(C)(C)C)cc3)oc(=O)c2c1 | range 2 |
| CC(C)(C)c1ccc(-c2nc3ccc(I)cc3c(=O)o2)cc1 | range 1 |
| CC(C)(C)c1ccc(-c2nc3ccccc3c(=O)o2)cc1 | range 2 |
| CCOC(=O)C(C)(C)Oc1ccc(Cl)cc1 [CLOFIBRATE] | range 2 |
| Cc1ccc2nc(-c3ccccc3C(C)(C)C)oc(=O)c2c1 | range 2 |
| Cc1ccc2nc(-c3cccc(C(C)(C)C)c3)oc(=O)c2c1 | range 3 |
| Cc1ccc2nc(-c3ccccc3)oc(=O)c2c1 | range 2 |
| CC(C)(C)c1ccc(-c2nc3ccc([N+](=O)[O-])cc3c(=O)o2)cc1 | range 3 |
| CC(C)(C)c1ccc(-c2nc3ccc(Cl)cc3c(=O)o2)cc1 | range 1 |
| O=C(O)c1cccnc1 | range 3 |

meta.source: ChEMBL document CHEMBL1124334
